Exercise: state measured EC50 for each of the molecules provided.
# target under test: Neurotensin receptor type 1 (Homo sapiens, UniProt P30989)
# Sequence (P30989 whole entry): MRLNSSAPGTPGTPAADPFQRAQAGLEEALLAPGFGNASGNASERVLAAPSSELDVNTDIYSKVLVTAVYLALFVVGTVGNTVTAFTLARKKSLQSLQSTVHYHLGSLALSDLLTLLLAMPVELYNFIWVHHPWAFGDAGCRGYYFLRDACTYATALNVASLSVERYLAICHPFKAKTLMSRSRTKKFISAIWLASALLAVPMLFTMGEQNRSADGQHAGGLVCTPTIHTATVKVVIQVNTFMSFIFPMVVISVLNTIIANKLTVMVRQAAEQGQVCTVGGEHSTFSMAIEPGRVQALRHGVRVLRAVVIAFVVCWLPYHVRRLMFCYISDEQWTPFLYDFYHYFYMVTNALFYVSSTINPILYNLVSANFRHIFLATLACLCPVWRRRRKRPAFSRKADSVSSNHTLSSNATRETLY
# test summary: Agonist activity at NTR1 in human HT-29 cells assessed as increase in intracellular calcium concentration by FLIPR assay
Non-standard residues stand in square brackets, D forms with d. Residues, ends and D or L forms follow the SMILES beside them. *: point of attachment. X2 = [N-]=[N+]=N[C@@H](CCCCN)CC(=O)*; Tle = CC(C)(C)[C@H](N)C(=O)O; β3hK = NCCCC[C@H](N)CC(=O)O

EC50 of CC[C@@H](C)[C@H](NC(=O)[C@H](Cc1ccc(O)cc1)NC(=O)[C@@H]1CCCN1C(=O)[C@H](CCCNC(=N)N)NC(=O)[C@H](CCCNC(=N)N)NC)C(=O)N[C@@H](CC(C)C)C(=O)O , assay on Neurotensin receptor type 1 (Homo sapiens, UniProt P30989), is 0.853 nM

EC50 of CC(C)C[C@H](NC(=O)[C@@H](NC(=O)[C@H](Cc1c[nH]c2ccccc12)NC(=O)[C@@H]1CCCN1C(=O)[C@H](CCCCN)NC(=O)[C@@H](N)CCCN=C(N)N)C(C)(C)C)C(=O)O (H-RKPW[Tle]L-OH) , assay on Neurotensin receptor type 1 (Homo sapiens, UniProt P30989), is 217 nM

EC50 of CC(C)C[C@H](NC(=O)[C@@H](NC(=O)[C@H](Cc1ccc(O)cc1)NC(=O)[C@@H]1CCCN1C(=O)[C@H](CCCNC(=N)N)NC(=O)C[C@@H](N)CCCCN)C(C)(C)C)C(=O)O (H-[β3hK]RPY[Tle]L-OH) , assay on Neurotensin receptor type 1 (Homo sapiens, UniProt P30989), is 6.21 nM

EC50 of CC(=O)N[C@@H](CCCNC(=N)N)C(=O)N[C@@H](CCCCN)C(=O)N1CCC[C@H]1C(=O)N[C@@H](Cc1c[nH]c2ccccc12)C(=O)N[C@H](C(=O)N[C@@H](CC(C)C)C(=O)O)C(C)(C)C (Ac-RKPW[Tle]L-OH) , assay on Neurotensin receptor type 1 (Homo sapiens, UniProt P30989), is 764 nM

EC50 of CC(C)C[C@H](NC(=O)[C@@H](NC(=O)[C@H](Cc1ccc(O)cc1)NC(=O)[C@@H]1CCCN1C(=O)[C@H](CCCNC(=N)N)NC(=O)C[C@H](CCCCN)N=[N+]=[N-])C(C)(C)C)C(=O)O (X2-RPY[Tle]L-OH) , assay on Neurotensin receptor type 1 (Homo sapiens, UniProt P30989), is 7.28 nM

The reported measurements were obtained from ChEMBL document CHEMBL1153387.
